The following compounds are listed with their measured inhibition values.
Molecular target: UniProtKB Q05655
Sequence (Q05655 whole entry, looked up): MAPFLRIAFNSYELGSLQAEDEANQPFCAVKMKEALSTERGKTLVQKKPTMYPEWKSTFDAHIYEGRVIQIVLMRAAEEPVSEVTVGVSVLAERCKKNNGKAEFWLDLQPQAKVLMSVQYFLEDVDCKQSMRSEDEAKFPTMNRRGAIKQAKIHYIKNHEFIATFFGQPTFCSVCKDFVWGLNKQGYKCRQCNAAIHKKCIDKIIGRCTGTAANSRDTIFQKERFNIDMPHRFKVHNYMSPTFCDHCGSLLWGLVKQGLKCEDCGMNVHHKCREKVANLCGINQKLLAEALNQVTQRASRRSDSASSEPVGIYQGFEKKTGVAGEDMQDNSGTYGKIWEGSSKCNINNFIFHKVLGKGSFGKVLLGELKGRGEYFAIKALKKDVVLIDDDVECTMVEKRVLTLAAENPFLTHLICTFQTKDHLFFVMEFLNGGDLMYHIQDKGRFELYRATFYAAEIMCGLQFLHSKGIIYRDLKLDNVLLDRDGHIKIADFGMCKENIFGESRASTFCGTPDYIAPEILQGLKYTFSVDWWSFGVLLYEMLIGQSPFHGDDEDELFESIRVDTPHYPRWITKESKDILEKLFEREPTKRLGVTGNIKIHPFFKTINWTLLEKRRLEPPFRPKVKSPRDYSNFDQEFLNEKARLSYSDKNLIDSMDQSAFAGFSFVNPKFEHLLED
Assay: Caliper, Mobility shift assay off-chip
Settings: compound 0.1 µM

Answered cases to consult:
Cn1cc(-c2cnc3ccc4ccc(CS(=O)(=O)NCC5CCCCN5)cc4c(=O)c3c2)cn1 (configuration not stated)
-38.2%
CN(c1ccc2ccc3ncc(-c4cnn(C)c4)cc3c(=O)c2c1)S(=O)(=O)NCc1ccccn1
-0.8%

Reported inhibition for UniProtKB Q05655, given `O=c1c2cc(CS(=O)(=O)NCc3ccccn3)ccc2ccc2ncc(C3CCNCC3)cc12` ? 2.4%

Proceed to `Cn1cc(-c2cnc3ccc4ccc(CS(N)(=O)=O)cc4c(=O)c3c2)cn1` 5.1%

Request: `Cn1cc(-c2cnc3ccc4ccc(CS(=O)(=O)CCc5ccccn5)cc4c(=O)c3c2)cn1` -36%

And then `Cn1cc(-c2cnc3ccc4ccc(CS(=O)(=O)NC5CCCCC5)cc4c(=O)c3c2)cn1` , what is it? 8.3%

// repeat for `O=C(CCc1ccc2ccc3ncc(C4CCNCC4)cc3c(=O)c2c1)NCc1ccccn1` and report 0.7%
